# TESTED_ON: SARS-CoV-2 PLpro (Severe acute respiratory syndrome coronavirus 2, UniProt P0DTD1)
# Construct: containing 60 nM papain-like protease
# ASSAY_OVERVIEW: biochemical
# CONDITION: 60 nM papain-like protease, 50 μM Z-RLRGG-AMC, pH 7.5, 37° C.; read-out: SARS-CoV-2 PLpro IC50
pIC50: −log10 of the molar value. Where a name gives a salt, the structure may show the parent alone.
MEASURED_PROPERTY: pIC50

Some entries whose results are on file:
molecule=Cc1ccc(N2CCN(C)CC2)cc1C(=O)N[C@H](C)c1cccc(-c2cccc(C(=O)N3CCCCC3)c2)c1 recorded_measurement="> 5.70"
molecule=C[C@@H](NC(=O)c1cccc(C(=O)NCCN(C)C)c1)c1cccc2ccccc12 recorded_measurement="> 4.00"
molecule=COc1ccc([C@@H](C)NC(=O)c2cc(N3C[C@@H]4C[C@H]3CN4C)ccc2C)cc1OC recorded_measurement="> 5.30"
molecule=COc1ccc([C@@H](C)NC(=O)c2cc(N3CCN(C)CC3)ccc2C)cc1-c1cn(C)nc1C recorded_measurement="> 5.70"
molecule=Cc1ccc(N2CCN(C)CC2)cc1C(=O)N[C@H](C)c1cccc(-c2cccc(C(=O)N3CC[C@H](O)C3)c2)c1 recorded_measurement="> 5.70"

stdin: Give the reported pIC50 for COc1cc(-c2cn(C)nc2C)cc([C@@H](C)NC(=O)c2cc(N3CCN(CC4CC4)CC3)ccc2C)c1 [Example 255, hydrochloride salt] (system: SARS-CoV-2 PLpro (Severe acute respiratory syndrome coronavirus 2, UniProt P0DTD1)).
stdout: > 5.70

stdin: Give SARS-CoV-2 PLpro (Severe acute respiratory syndrome coronavirus 2, UniProt P0DTD1) pIC50 for COc1cc(OC)c([C@@H](C)NC(=O)c2cc(N3CCN(C)CC3)ccc2C)cc1Br
stdout: > 5.30

stdin: Identify the measured pIC50 of COc1cc(-c2ccnn2C)cc([C@@H](C)NC(=O)c2cc(N3C[C@H]4C[C@@H]3CN4C)ccc2C)c1 for SARS-CoV-2 PLpro (Severe acute respiratory syndrome coronavirus 2, UniProt P0DTD1).
stdout: > 5.70

stdin: What is its pIC50 for SARS-CoV-2 PLpro (Severe acute respiratory syndrome coronavirus 2, UniProt P0DTD1)? Entry: COc1ccc([C@@H](C)NC(=O)c2cc(N3C[C@@H]4C[C@H]3CN4)ccc2C)cc1OC
stdout: > 4.70

stdin: Record CNCCN(C)C(=O)c1cccc(-c2cccc([C@@H](C)NC(=O)c3cc(N4CCN(C)CC4)ccc3C)c2)c1 [Example 99, Hydrochloride Salt] : what is its pIC50 with SARS-CoV-2 PLpro (Severe acute respiratory syndrome coronavirus 2, UniProt P0DTD1)?
stdout: > 5.70

stdin: Item COc1cc(-c2cn(C)nc2C)cc([C@@H](C)NC(=O)c2cc(N3CCNC4(CC4)C3)ccc2C)c1 with SARS-CoV-2 PLpro (Severe acute respiratory syndrome coronavirus 2, UniProt P0DTD1) - pIC50?
stdout: > 5.70

---

# Test system: human Hep G2 cells (ATCC HB-8065)
# ASSAY_OVERVIEW: Cytotoxicity in Hep G2 cells (CellTiter-Glo)
# Assay type: cell-based
# CONDITION: Hep G2 cells, 100 μM test article, 24-hour exposure
Under this convention, t denotes % Cell Viability strictly below 50% and f denotes % Cell Viability at or above 50%.

stdin: Criterion: % Cell Viability strictly below 50%. Is it met by COc1ccc([C@@H](C)NC(=O)c2cc(N3CCN(C)CC3)ccc2C)cc1-c1cnn(C(F)F)c1 ?
stdout: f

stdin: Field: below-cutoff. Rule: recorded % Cell Viability strictly less than 50%. Subject: COc1cc(-c2cn(C)nc2C)cc([C@@H](C)NC(=O)c2cc(N3C[C@H]4C[C@@H]3CN4C)ccc2C)c1
stdout: t

stdin: # check: % Cell Viability < 50% for Cc1ccc(N2CCN(C)CC2)cc1C(=O)N[C@H](C)c1ccc(Cl)c(Br)c1
stdout: t

stdin: # check: % Cell Viability < 50% for Cc1ccc(N2CCN(C)CC2)cc1C(=O)N[C@H](C)c1ccc(F)c(-c2cnn(C)c2)c1
stdout: f

stdin: Regarding COc1ccc([C@@H](C)NC(=O)c2cc(N3CCN(C)CC3)ccc2C)cc1 , kindly confirm whether its % Cell Viability is beneath 50%.
stdout: f

stdin: Here's an entry: Cc1ccc(N2CCN(C)CC2)cc1C(=O)N[C@H](C)c1ccc(-c2ccc(CO)cc2)cc1 . Is its % Cell Viability below 50%?
stdout: f

---

Below is a list of entries, each paired with its recorded IC50 value.
# TESTED_ON: SARS-CoV-2 PLpro (Severe acute respiratory syndrome coronavirus 2, UniProt P0DTD1)
# Construct: containing 60 nM papain-like protease
# ASSAY_OVERVIEW: biochemical
# CONDITION: 60 nM papain-like protease, 50 μM Z-RLRGG-AMC, pH 7.5, 37° C.; read-out: SARS-CoV-2 PLpro IC50

structure_smiles=Cc1ccc(N2CCN(C)CC2)cc1C(=O)N[C@H](C)c1cccc(-c2cccc(C(=O)O)c2)c1 tested_on="SARS-CoV-2 PLpro (Severe acute respiratory syndrome coronavirus 2, UniProt P0DTD1)" recorded_measurement="< 5000 nM"

stdin: Could you tell me which IC50 is on file for Cc1ccc(N2CCN(C)CC2)cc1C(=O)N[C@H](C)c1cccc2ccccc12 ?
stdout: < 2000 nM

stdin: For the molecule shown here, CCn1cc(-c2cc([C@@H](C)NC(=O)c3cc(N4CCN(C)CC4)ccc3C)ccc2OC)cn1 , give the reported IC50.
stdout: < 2000 nM

stdin: Endpoint output: IC50 of COc1cc(-c2cn(C)nc2C)cc([C@@H](C)NC(=O)c2cc(C3CCNCC3)ccc2C)c1 . Value?
stdout: < 2000 nM

---

Overview of reported % Cell Viability across a group of molecules:
# System: human Hep G2 cells (ATCC HB-8065)
# ASSAY_OVERVIEW: Cytotoxicity in Hep G2 cells (CellTiter-Glo)
# Assay type: cell-based
# CONDITION: Hep G2 cells, 100 μM test article, 24-hour exposure
State just the number; it will be interpreted in %.

molecule="Cc1ccc(N2C[C@H]3C[C@@H]2CN3C)cc1C(=O)N[C@H](C)c1cccc(-c2cccc(C(C)(C)O)c2)c1 [Example 57]" tested_on="human Hep G2 cells (ATCC HB-8065)" measured_property="% Cell Viability" recorded_measurement=0.9
molecule="Cc1ccc(N2CCN(C)CC2)cc1C(=O)N[C@H](C)c1cccc(-c2cccc(N3CCN(CCC(=O)O)CC3)c2)c1 [Example 167]" tested_on="human Hep G2 cells (ATCC HB-8065)" measured_property="% Cell Viability" recorded_measurement=110.4
molecule="COc1ccc([C@@H](C)NC(=O)c2cc(N3CCN(C)CC3)ccc2C)cc1-c1nnc(C)s1 [Example 236]" tested_on="human Hep G2 cells (ATCC HB-8065)" measured_property="% Cell Viability" recorded_measurement=79.5

We next turn to a different molecule, shown below.
stdin: Sample Cc1ccc(N2CCN(C)CC2)cc1C(=O)N[C@H](C)c1cccc(-c2cccc(C(=O)NC[C@H](O)CO)c2)c1 [Example 89] — what was its % Cell Viability?
stdout: 96.2

---

# TESTED_ON: SARS-CoV-2 PLpro (Severe acute respiratory syndrome coronavirus 2)
# Construct: containing 60 nM papain-like protease
# ASSAY_OVERVIEW: biochemical
# CONDITION: 60 nM papain-like protease, 50 μM Z-RLRGG-AMC, pH 7.5, 37° C.; read-out: SARS-CoV-2 PLpro IC50
# IC50 values compiled below

Below are worked cases with known answers.
molecule=COc1ccc([C@@H](C)NC(=O)c2cc(N3CCN(C)CC3)ccc2C)cc1-c1ccc(=O)n(C)c1 measured_property=IC50 recorded_measurement="< 5 µM"
molecule=COc1ccc([C@@H](C)NC(=O)c2cc(N3CCN(C)CC3)ccc2C)cc1-c1cnn(C(F)F)c1 measured_property=IC50 recorded_measurement="< 2 µM"
molecule=C[C@@H](NC(=O)c1cc(-c2ccncc2)cn1C)c1cccc2ccccc12 measured_property=IC50 recorded_measurement="> 100 µM"
molecule=C[C@@H](NC(=O)c1cc(N2CCN(C)CC2)ccc1Cl)c1cccc2ccccc12 measured_property=IC50 recorded_measurement="< 10 µM"
molecule="C[C@@H](NC(=O)c1cc(C2CCNC2)ccc1Cl)c1cccc2ccccc12 (stereo partly shown)" measured_property=IC50 recorded_measurement="< 5 µM"
molecule=COc1cc(-c2cnn(C3CC3)c2)cc([C@@H](C)NC(=O)c2cc(N3CCN(C)CC3)ccc2C)c1 measured_property=IC50 recorded_measurement="< 2 µM"
molecule=Cc1ccc(N2C[C@H]3C[C@@H]2CN3C)cc1C(=O)N[C@H](C)c1cccc2ccccc12 measured_property=IC50 recorded_measurement="< 2 µM"
molecule=Cc1ccc(N2C[C@H]3C[C@@H]2CN3C)cc1C(=O)N[C@H](C)c1cccc2c1OCO2 measured_property=IC50 recorded_measurement="< 5 µM"
molecule="COc1ccc([C@@H](C)NC(=O)c2cc(N3CC4CNCC4C3)ccc2C)cc1OC (stereo partly shown)" measured_property=IC50 recorded_measurement="< 2 µM"
molecule=Cc1ccc(N2CCN(CCC(=O)O)CC2)cc1C(=O)N[C@H](C)c1cccc2ccccc12 measured_property=IC50 recorded_measurement="< 2 µM"

stdin: Fill blank: measured IC50 of the molecule Cc1ccc(N2CCN(CCO)CC2)cc1C(=O)N[C@H](C)c1cccc2ccccc12 is ____.
stdout: < 2 µM

stdin: I would be grateful if you could share the reported IC50 for Cc1ccc(-c2cccc(CCO)c2)cc1C(=O)N[C@H](C)c1cccc2ccccc12 .
stdout: > 100 µM

stdin: // lookup IC50 for COc1ccc(-c2cccc([C@@H](C)NC(=O)c3cc(N4CCN(C)CC4)ccc3C)c2)cc1
stdout: < 2 µM

stdin: Sample COc1ccc([C@@H](C)NC(=O)c2cc(N3CCN(CCO)CC3)ccc2C)cc1-c1cnn(C)c1 — what was its IC50?
stdout: < 5 µM

stdin: Bench note: what IC50 did COc1ccc([C@@H](C)NC(=O)c2cc(N3CCN(C)CC3)ccc2C)cc1-c1ccccc1 show?
stdout: < 2 µM

stdin: Requested field: IC50. Item: Cc1ccc(N2CCN(C)CC2)cc1C(=O)N[C@H](C)c1cccc(C#N)c1
stdout: < 10 µM

stdin: So what does the record say about IC50 for Cc1ccc(N2CCN(C)CC2)cc1C(=O)N[C@H](C)c1cccc(CCC(=O)O)c1 ?
stdout: < 100 µM

stdin: I'd like to know its IC50. The molecule in question is Cc1ccc(N2CCN(C)CC2)cc1C(=O)N[C@H](C)c1cccc(N2CCNCC2)c1
stdout: < 5 µM

stdin: For the molecule COc1cc(-c2cn(C)nc2C)cc([C@@H](C)NC(=O)c2cc(C3CCN(C)CC3)ccc2C)c1 , what IC50 is on record?
stdout: < 2 µM

stdin: Consider the molecule shown here: C[C@@H](NC(=O)c1cc(C2CCNC2)cn1C)c1cccc2ccccc12 (stereo partly shown) What is its recorded IC50?
stdout: < 100 µM

stdin: Reported IC50, molecule COc1cc(OC)c([C@@H](C)NC(=O)c2cc(N3CCN(C)CC3)ccc2C)cc1-c1cnn(C)c1 : ____
stdout: < 2 µM

stdin: Item under review: Cc1ccc(N2CCN(CC(=O)N(C)C)CC2)cc1C(=O)N[C@H](C)c1cccc(-c2cnn(C)c2)c1 . Reported IC50?
stdout: < 20 µM
